target: human GPRC5D (human, UniProt Q9NZD1 1-345); experiment: cell-based or functional assay
Sequence (Q9NZD1 whole entry): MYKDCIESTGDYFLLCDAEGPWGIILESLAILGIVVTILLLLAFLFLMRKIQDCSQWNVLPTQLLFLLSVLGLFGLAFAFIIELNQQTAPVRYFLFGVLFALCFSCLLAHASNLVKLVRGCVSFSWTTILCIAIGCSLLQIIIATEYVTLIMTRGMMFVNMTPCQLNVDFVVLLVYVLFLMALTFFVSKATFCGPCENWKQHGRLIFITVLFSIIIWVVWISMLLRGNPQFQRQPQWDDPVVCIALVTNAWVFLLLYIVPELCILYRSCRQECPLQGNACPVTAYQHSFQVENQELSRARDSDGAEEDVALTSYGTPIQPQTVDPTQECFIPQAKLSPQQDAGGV
measured endpoint: CAR-J2 EC50 (ng/mL)
Give bare numbers, in ng/mL.

P1AE5714 (antibody, V domains shown) VH: ELQLLESGGGLVQPGGSLRLSCAASGFTFSKYAMAWVRQAPGKGLEWVASISTGGVNTYYRDSVKARFTISRDNAKNTLYLQMNSLRAEDTAVYYCATHTGDYFDYWGQGTMVTVSS VL: DIVMTQSPDSLAVSLGERATINCRASQSVSISGINLMNWYQQKPGQQPKLLIYHASILASGVPDRFSGSGSGTDFTLTISSLQAEDVAVYYCQQTRESPLTFGQGTRLEIK	5.5

Now take the following binder into account.
GET /value?item= P1AE5724 (antibody, V domains shown) VH: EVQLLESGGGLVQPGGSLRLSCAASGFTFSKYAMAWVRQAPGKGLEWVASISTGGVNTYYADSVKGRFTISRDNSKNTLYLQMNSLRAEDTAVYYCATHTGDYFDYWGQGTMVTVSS VL: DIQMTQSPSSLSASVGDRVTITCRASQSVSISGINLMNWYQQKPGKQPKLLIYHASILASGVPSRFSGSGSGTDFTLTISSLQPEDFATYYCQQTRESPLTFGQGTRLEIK &field=CAR-J2 EC50 returns 3.6
